molecular target: T1, 12xHis-SERCA2(111-253) (UniProt P16615 111-253); assay: SPR; Biacore X100; biotinylated Arg11 immobilised on an SA chip at 744.3 RU; 12xHis-SERCA2(111-253) injected at 0.7–200 nM, 0.19–50 nM or 12.5–200 nM, 30 µL/minute for 180 s; dissociation 600 or 1000 s; 1 × Biacore running buffer; one-to-one Langmuir model; details: both partners purified
T1 construct: also called recombinant SERCA2 polypeptide containing the A-domain; actuator domain of SERCA2; source: recombinant, generated by Genscript; dialysed into Biacore running buffer for SPR
T1 sequence (P16615 111-253): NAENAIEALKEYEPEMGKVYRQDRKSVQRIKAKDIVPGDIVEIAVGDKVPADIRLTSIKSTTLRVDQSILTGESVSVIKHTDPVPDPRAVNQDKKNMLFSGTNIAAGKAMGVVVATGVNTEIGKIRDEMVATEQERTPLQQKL
Where no end group is shown, it is not given here. The star is where a group is joined. Biotin = O=C1N[C@H]2[C@H](CS[C@H]2CCCCC(=O)*)N1

# Binder, Units symbol, Kd
records = [
    ("Biotin-RRRRRRRRRRR (polyarginine cell-penetrating peptide of 11 arginines; Peptides were synthesized with or without the N-terminal biotin; ELISA and SPR used the biotinylated form; also called biotinylated Arg11; polyarginine CPP; source: synthetic peptide (GenScript Biotech Corp, >80% purity)) [biotin-Arg11]", "nM", 0.4),
]
